biological target: T1, human TSH receptor (full length), coated on tubes (human, UniProt P16473 22-764); test: competition with 125I-K1-18 IgG on TSHR coated tubes; 3 µg/mL, diluted in assay buffer
T1 construct: TSHR coated tubes as described in WO2004/050708A2; Exact preparation on the tubes is not detailed here; also called thyroid stimulating hormone receptor
measurement-kind: Inhibition of binding (%)
State just the number; it will be interpreted in %.

Below, each entry is followed by its recorded Inhibition of binding (%) result.
- binder: "K1-18 Fab (Fab, V domains shown) VH: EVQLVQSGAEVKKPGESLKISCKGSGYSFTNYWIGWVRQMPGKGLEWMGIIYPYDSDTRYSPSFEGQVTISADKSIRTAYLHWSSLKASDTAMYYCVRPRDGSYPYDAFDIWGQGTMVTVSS VL: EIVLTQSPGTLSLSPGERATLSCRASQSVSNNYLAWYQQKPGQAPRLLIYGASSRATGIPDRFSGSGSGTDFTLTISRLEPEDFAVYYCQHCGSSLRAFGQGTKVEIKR"
  Inhibition of binding (%): 81.9
- binder: "K1-70 Fab (Fab, V domains shown) VH: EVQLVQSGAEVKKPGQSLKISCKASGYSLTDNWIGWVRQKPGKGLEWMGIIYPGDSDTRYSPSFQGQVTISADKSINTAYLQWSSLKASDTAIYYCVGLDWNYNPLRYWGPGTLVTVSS VL: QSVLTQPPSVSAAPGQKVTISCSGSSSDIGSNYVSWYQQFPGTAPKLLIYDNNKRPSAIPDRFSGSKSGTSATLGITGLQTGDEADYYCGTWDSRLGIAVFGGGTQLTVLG"
  Inhibition of binding (%): 91.1

Input K1-70 IgG (antibody, V domains shown) VH: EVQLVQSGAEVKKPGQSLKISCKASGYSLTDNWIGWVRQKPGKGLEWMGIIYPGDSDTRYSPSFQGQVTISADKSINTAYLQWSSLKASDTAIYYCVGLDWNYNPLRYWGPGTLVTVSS VL: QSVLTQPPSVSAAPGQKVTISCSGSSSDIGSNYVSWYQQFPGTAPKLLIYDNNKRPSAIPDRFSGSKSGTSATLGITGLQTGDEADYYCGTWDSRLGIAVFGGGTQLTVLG . Output Inhibition of binding (%): 92.9

Input K1-18 IgG (antibody, V domains shown) VH: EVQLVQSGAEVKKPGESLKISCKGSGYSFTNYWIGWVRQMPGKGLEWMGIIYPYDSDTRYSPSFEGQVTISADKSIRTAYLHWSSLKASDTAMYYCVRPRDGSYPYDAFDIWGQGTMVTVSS VL: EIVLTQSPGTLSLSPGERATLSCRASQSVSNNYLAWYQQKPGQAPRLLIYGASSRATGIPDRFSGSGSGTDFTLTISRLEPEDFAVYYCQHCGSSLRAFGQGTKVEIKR . Output Inhibition of binding (%): 93
